Recorded Inhibitory rate on pro-proliferative effect of IL-13 values for a group of binders are listed next.
# experimental_system: T1, IL-4Rα on TF-1 cells (human, UniProt P24394 26-825)
# T1 sequence (looked up): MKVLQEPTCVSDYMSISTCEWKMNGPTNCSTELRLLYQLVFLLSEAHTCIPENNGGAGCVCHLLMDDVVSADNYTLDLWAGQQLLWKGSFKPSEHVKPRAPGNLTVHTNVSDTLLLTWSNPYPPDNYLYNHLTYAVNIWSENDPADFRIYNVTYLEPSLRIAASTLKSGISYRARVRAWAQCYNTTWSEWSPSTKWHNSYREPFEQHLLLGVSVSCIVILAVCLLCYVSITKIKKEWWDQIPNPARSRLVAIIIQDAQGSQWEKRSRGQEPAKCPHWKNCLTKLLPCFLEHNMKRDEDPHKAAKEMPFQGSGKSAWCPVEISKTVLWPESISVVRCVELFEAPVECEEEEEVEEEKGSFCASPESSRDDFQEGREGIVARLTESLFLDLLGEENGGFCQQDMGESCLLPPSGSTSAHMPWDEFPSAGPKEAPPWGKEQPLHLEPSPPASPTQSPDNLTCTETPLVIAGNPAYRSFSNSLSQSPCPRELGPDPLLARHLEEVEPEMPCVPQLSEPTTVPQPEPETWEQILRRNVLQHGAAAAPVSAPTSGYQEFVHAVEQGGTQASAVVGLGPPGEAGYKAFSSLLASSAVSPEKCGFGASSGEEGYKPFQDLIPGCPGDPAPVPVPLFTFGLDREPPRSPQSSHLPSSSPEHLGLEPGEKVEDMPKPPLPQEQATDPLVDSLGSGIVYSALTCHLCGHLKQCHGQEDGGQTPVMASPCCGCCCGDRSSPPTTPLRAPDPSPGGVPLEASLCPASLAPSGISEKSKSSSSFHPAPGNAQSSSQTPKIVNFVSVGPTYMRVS
# assay_remarks: cell-based or functional assay
endpoint_label: Inhibitory rate on pro-proliferative effect of IL-13

binder="L1021H1027 (antibody, V domains shown, human kappa) VH: EVQLVESGGGLVHPGGSLRLSCAASGFTFSRNAMFWVRQAPGKGLEWVSGIGTGGATSYADSVKGRFTISRDNAKNSLYLQMNSLRAEDTAVYYCARGRYYFPWWGQGTLVTVSS VL: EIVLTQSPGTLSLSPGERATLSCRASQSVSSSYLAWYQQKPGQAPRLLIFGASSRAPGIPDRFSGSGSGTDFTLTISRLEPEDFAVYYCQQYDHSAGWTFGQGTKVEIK" observed_value=0.94
binder="L1021H1007 (antibody, V domains shown, human kappa) VH: EVQLVQSGGGLVHPGGSLRLSCAGSGFTFSRNAMFWVRQAPGKGLEWVSGIGTGGATSYADSVKGRFTISRDNAKNSLYLQMNSLRAEDMAVYYCARGRYYFDYWGQGTLVTVSS VL: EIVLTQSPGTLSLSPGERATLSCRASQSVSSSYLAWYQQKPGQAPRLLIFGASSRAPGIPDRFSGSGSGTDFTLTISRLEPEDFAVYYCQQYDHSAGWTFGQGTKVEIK" observed_value=0.86
binder="L1021H1020 (antibody, V domains shown, human kappa) VH: EVQLVQSGGGLVHPGGSLRLSCAGSGFTFSRNAMFWVRQAPGKGLEWVSGIGTGGATSYADSVKGRFTISRDNAKNSLYLQMNSLRAEDMAVYYCARGRYYFPWWGQGTLVTVSS VL: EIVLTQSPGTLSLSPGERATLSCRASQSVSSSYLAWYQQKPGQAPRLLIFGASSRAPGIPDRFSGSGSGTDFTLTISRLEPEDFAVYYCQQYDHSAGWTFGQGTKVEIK" observed_value=0.75
